Just for reference, patent US8008501B2 is where these values come from.

- System: cultured human mast cells (CHMC)
- test-name: CHMC low cell density ionomycin activation: tryptase assay
- Format: cell-based
- reported-conditions: ionomycin stimulated, tryptase release, second symbol of cell, read-out: CHMC -IONO
property-measured: IC50

input_smiles=Cc1cc(OC(=O)c2c(-c3ccccc3)noc2C)c2cc(F)ccc2n1 target_or_test_system="cultured human mast cells (CHMC)" property_measured=IC50 recorded_result="≤ 10 µM"
input_smiles=Cc1onc(-c2ccccc2Cl)c1C(=O)Oc1ccnc2ccc(OC(F)(F)F)cc12 target_or_test_system="cultured human mast cells (CHMC)" property_measured=IC50 recorded_result="≤ 10 µM"
input_smiles=Cc1onc(-c2ccccc2)c1C(=O)Oc1ccnc2ccccc12 target_or_test_system="cultured human mast cells (CHMC)" property_measured=IC50 recorded_result="≤ 10 µM"
input_smiles=Cc1noc(C)c1C(=O)Oc1cc(C(F)(F)F)nc2ccc(OC(F)(F)F)cc12 target_or_test_system="cultured human mast cells (CHMC)" property_measured=IC50 recorded_result="≤ 10 µM"
input_smiles=Cc1onc(-c2c(F)cccc2Cl)c1C(=O)Oc1ccnc2ccc(OC(F)(F)F)cc12 target_or_test_system="cultured human mast cells (CHMC)" property_measured=IC50 recorded_result="> 10 µM"
input_smiles=Cc1cc(C(=O)Nc2c(C)noc2C)c2cc(F)ccc2n1 target_or_test_system="cultured human mast cells (CHMC)" property_measured=IC50 recorded_result="> 10 µM"
input_smiles=Cc1onc(-c2ccccc2Cl)c1C(=O)Nc1ccnc2cc(C(F)(F)F)ccc12 target_or_test_system="cultured human mast cells (CHMC)" property_measured=IC50 recorded_result="> 10 µM"
input_smiles=Cc1onc(-c2ccccc2)c1NC(=O)c1cc(Nc2ccc3[nH]ccc3c2)nc2ccc(Br)cc12 target_or_test_system="cultured human mast cells (CHMC)" property_measured=IC50 recorded_result="> 10 µM"
input_smiles=CCOC(=O)c1cnc2cc(C(F)(F)F)ccc2c1OC(=O)c1c(-c2ccccc2)noc1C target_or_test_system="cultured human mast cells (CHMC)" property_measured=IC50 recorded_result="≤ 10 µM"
input_smiles=Cc1onc(-c2ccccc2)c1NC(=O)c1cc(-c2ccccc2)nc2ccccc12 target_or_test_system="cultured human mast cells (CHMC)" property_measured=IC50 recorded_result="> 10 µM"
input_smiles=Cc1noc(C)c1C(=O)Nc1ccnc2cc(C(F)(F)F)ccc12 target_or_test_system="cultured human mast cells (CHMC)" property_measured=IC50 recorded_result="> 10 µM"
input_smiles=Cc1noc(C)c1NC(=O)c1cc(-c2ccccc2)nc2ccccc12 target_or_test_system="cultured human mast cells (CHMC)" property_measured=IC50 recorded_result="> 10 µM"
input_smiles=CNc1cc(NC(=O)c2c(-c3ccccc3)noc2C)c2cc(Br)ccc2n1 target_or_test_system="cultured human mast cells (CHMC)" property_measured=IC50 recorded_result="> 10 µM"
input_smiles=Cc1onc(-c2ccccc2)c1C(=O)Oc1ccnc2ccc(OC(F)(F)F)cc12 target_or_test_system="cultured human mast cells (CHMC)" property_measured=IC50 recorded_result="≤ 10 µM"
input_smiles=Cc1onc(-c2ccccc2)c1C(=O)Oc1ccnc2cc(C(F)(F)F)ccc12 target_or_test_system="cultured human mast cells (CHMC)" property_measured=IC50 recorded_result="≤ 10 µM"
input_smiles=Cc1onc(-c2ccccc2)c1NC(=O)c1ccnc2ccccc12 target_or_test_system="cultured human mast cells (CHMC)" property_measured=IC50 recorded_result="> 10 µM"
input_smiles=CCOC(=O)c1cc(OC(=O)c2c(-c3ccccc3)noc2C)c2ccccc2n1 target_or_test_system="cultured human mast cells (CHMC)" property_measured=IC50 recorded_result="≤ 10 µM"
input_smiles=Cc1onc(-c2ccccc2)c1C(=O)Oc1cc(C(F)(F)F)nc2ccc(OC(F)(F)F)cc12 target_or_test_system="cultured human mast cells (CHMC)" property_measured=IC50 recorded_result="≤ 10 µM"

----------
- Tested on: cultured human mast cells (CHMC)
- test-name: CHMC low cell density ionomycin activation: tryptase assay
- Format: cell-based
- reported-conditions: ionomycin stimulated, tryptase release, second symbol of cell, read-out: CHMC -IONO
property-measured: IC50

compound="Cc1cc(OC(=O)c2c(-c3ccccc3Cl)noc2C)c2cc(F)ccc2n1 [Compound 25]" recorded_result="≤ 10 µM"
compound="Cc1onc(-c2c(F)cccc2Cl)c1C(=O)Oc1cc(C(F)(F)F)nc2ccc(OC(F)(F)F)cc12 [Compound 31]" recorded_result="≤ 10 µM"
compound="Cc1onc(-c2ccccc2)c1C(=O)Oc1ccnc2cc(Cl)ccc12 [Compound 7]" recorded_result="≤ 10 µM"
compound="Cc1noc(C)c1NC(=O)c1cc(Cl)nc2ccc(Br)cc12 [Compound 45]" recorded_result="> 10 µM"
